Tested on: SN56
PROCEDURE_TEXT: Suppression of staurosporine-initiated apoptosis in mouse SN56 cells at 0.5 uM
Format: functional, cell-based
Activity calls are given as the source filed them. The calls are words filed in the database; no cut-off is given here.
READOUT_NAME: Activity

[[record]]
compound = "CC(C)=CCC[C@]1(C)C=Cc2c(O)c3c(c(CC=C(C)C)c2O1)O[C@]12C(=C[C@@H]4CC1C(C)(C)O[C@@]2(C/C=C(/C)C(=O)O)C4O)C3=O (some centres not stated)"
value_measured = "Active"

[[record]]
compound = "CC(C)CCC[C@]1(C)C=Cc2c(O)c3c(c(CCC(C)C)c2O1)O[C@]12C(C[C@@H]4CC1C(C)(C)O[C@@]2(CCC(C)C(=O)O)C4O)C3=O (some centres not stated)"
value_measured = "Active"

[[record]]
compound = "CC(C)=CCC[C@]1(C)C=Cc2c(O)c3c(c(CC=C(C)C)c2O1)O[C@]12C(=C[C@@H]4CC1C(C)(C)O[C@@]2(C/C=C(/C)C(N)=O)C4=O)C3=O [GAMBOGIC AMIDE]"
value_measured = "Active"

[[record]]
compound = "CC(C)=CCC[C@]1(C)C=Cc2c(O)c3c(c(CC=C(C)C)c2O1)O[C@]12C(C[C@@H]4CC1C(C)(C)O[C@@]2(C/C=C(/C)C(=O)O)C4O)C3=O (some centres not stated)"
value_measured = "Active"

[[record]]
compound = "CC(C)=CCC[C@]1(C)C=Cc2c(O)c3c(c(CC=C(C)C)c2O1)O[C@]12C(=C[C@@H]4C[C@H]1C(C)(C)O[C@@]2(C/C=C(/C)C(=O)O)C4=O)C3=O"
value_measured = "Active"

[[record]]
compound = "CC(=O)Oc1c2c(c(CC=C(C)C)c3c1C(=O)C1=C[C@@H]4CC5C(C)(C)O[C@@](C/C=C(\\C)C(=O)O)(C4=O)[C@@]15O3)O[C@](C)(CCC=C(C)C)C=C2"
value_measured = "Active"

[[record]]
compound = "COC(=O)/C(C)=C\\C[C@@]12OC(C)(C)C3C[C@@H](C=C4C(=O)c5c(OC)c6c(c(CC=C(C)C)c5O[C@]431)O[C@](C)(CCC=C(C)C)C=C6)C2=O"
value_measured = "Active"

